target entity: T1, recombinant human VTCN1-his protein (human, UniProt Q7Z7D3 25-259, limits assumed)
T1 construct: also called human VTCN1 protein; recombinant VTCN1
T1 sequence: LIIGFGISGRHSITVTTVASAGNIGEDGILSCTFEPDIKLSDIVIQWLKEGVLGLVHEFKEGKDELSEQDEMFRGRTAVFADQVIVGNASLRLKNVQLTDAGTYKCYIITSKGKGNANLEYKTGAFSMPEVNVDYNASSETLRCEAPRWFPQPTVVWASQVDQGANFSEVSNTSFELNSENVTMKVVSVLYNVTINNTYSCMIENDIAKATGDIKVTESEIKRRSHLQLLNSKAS
run description: BLI (OCTET), human VTCN1 protein
quantity: Kd
Answer with the number, then the unit.

Req: Any idea what Kd was measured for 16H12_60B4 (antibody, V domains shown, Fully human antibody) VH: QVQVVQSGAEVKKPGSSVKVSCKASGDTFSNYAISWVRQAPGQGLEWMGGIIPIFGITNYAQKFQGRVTIIADKSTRTAYMELSSLRSEDTAVYYCSRGGPYFDYWGQGILVTVSS VL: EIVMTQSPATLSVSPGERATLSCRASQSVSSNLAWYQQKPGQAPRLLIYGASTRATGIPARFSGSGSGTEFTLTISSLQSEDFAVYYCQQYKKWPFTFGPGTKVDIK ?
Resp: 0.7 nM

Req: // Kd lookup, key: 12B5_44B1 (antibody, V domains shown, Fully human antibody) VH: QVQLVQSGAEVKKPGSSMKVSCKASGDTFSSYAISWVRQAPGQGLEWMAGIIPVFGTAHNAQKFQGRVTITADKSTSTAYMELSSLRSEDTAVYYCTRGGPYFDYWGQGTLVTVSS VL: EIVMTQSPATLSVSPGERAALSCRASQSVSSNLAWYQQKPGQAPRLLIYGVSTRATGIPDRFNGSGSGTEFTLTISSLQSEDFGAYYCQQYKKWPFIFGPGTKLEIK
Resp: 2 nM

Req: Look up Kd for this binder: 7G7_44C6 (antibody, V domains shown, Fully human antibody) VH: QVQLQESGPGLVKPSETLSLTCTVSGGSISHYYWSWIRQPPGKGLEWIGYIYYSGPTNYNPSLKSRVTISVDTSKNQFSLKLSSVTAADTAVYYCARTYYYGSGSFPDAFDIWGQGTMVTVSS VL: KIVLTQSPATLSLSPGERATLSCRASQSVSSYLAWYQQTPGQAPRLLIYDASNRATGIPARFSVSGSGTDFTLTISSLEPEDFAVYYCQQRSSWPLTFGGGTKLEIK
Resp: 192 nM
